B1: ALDH8A1 (parent)
chain: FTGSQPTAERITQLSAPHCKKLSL

Variants of: B1
experiment_notes: protein stability index of a GFP-peptide fusion (GPS, HEK-293T) (PSI 1-6); higher = more stable;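 also: lentivirally expressed fusions sorted by FACS into six bins by GFP to DsRed ratio, PSI derived from sequencing read proportions per bin multiplied by bin number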
test_conditions: c terminus: a fixed tail appended
recorded_metric: protein stability index
Just the number, please, no unit after it.

{"mutant_designation": "T7N", "protein stability index": 2.83}

// switching to the query variant
Looking up `L22S` , I found its protein stability index recorded as 2.61

Just for reference, the supplement of paper PMC10567573 is where these values come from.
